TGT: Chaetomium thermophilum PCNA (proliferating cell nuclear antigen) (Chaetomium thermophilum)
MEASUREMENT DESCRIPTION: ITC; Ct PolD4 PIP peptide (400 uM) titrated into Ct PCNA (30 uM) in the cell, 25 °C, 50 mM Tris-HCl, 50 mM NaCl, pH 8.0; single-site binding model; duplicate
pKd: −log10 of the molar value.

| BINDER | pKd |
| --- | --- |
| KHQSTLNFKHRVTKP [Ct PolD4 PIP peptide (residues 21-35 of Chaetomium thermophilum PolD4)] | 4.66 |
